protocol-details: qHTS assay to identify small molecule antagonists of the estrogen related receptor (ERR) signaling pathway from Tox21 library - cell viability counter screen (AID 1224834); also: nearly all actives have a fitted effect of over 30% in size
assay-setup: ERR reporter cells viability, CellTiter-Fluor, 17.5 h; series mostly up to 92.4 µM
Results filed as inconclusive are left out. Calls of active or inactive are those of the source. Calls follow the shape of the dose curve; as a rule, active = well fitted cell-killing curve with a large enough effect in the repeat runs; inconclusive = weak or mixed curves; inactive = flat fitted curve, though single readings scatter.
Possible outcomes: active, inactive

[[record]]
compound = "CCOC(=O)C(O)(c1ccc(Cl)cc1)c1ccc(Cl)cc1"
discrete_label = "active"

[[record]]
compound = "CC(c1ccccc1)(c1ccc(O)cc1)c1ccc(O)cc1"
discrete_label = "active"

[[record]]
compound = "O=C(O)/C=C/C(=O)O"
discrete_label = "inactive"

[[record]]
compound = "Oc1c(I)cc(I)cc1I"
discrete_label = "inactive"

[[record]]
compound = "O=C(c1ccccc1)C(Cl)Cl"
discrete_label = "active"

[[record]]
compound = "c1ccc2c(c1)Sc1ccccc1N2CC1CN2CCC1CC2 (stereo unspecified)"
discrete_label = "active"

[[record]]
compound = "O=[N+]([O-])c1c(Cl)c(Cl)cc(Cl)c1Cl"
discrete_label = "inactive"

[[record]]
compound = "Cc1ccc(N(SC(F)(Cl)Cl)S(=O)(=O)N(C)C)cc1"
discrete_label = "active"

[[record]]
compound = "CCn1cc(C(=O)O)c(=O)c2ccc(C)nc21"
discrete_label = "inactive"

[[record]]
compound = "O=C(O)/C=C\\C(=O)O"
discrete_label = "inactive"

[[record]]
compound = "ClC(Cl)=C(c1ccc(Cl)cc1)c1ccccc1Cl"
discrete_label = "inactive"


###

protocol-details: qHTS assay for identifying genotoxic compounds that show differential cytotoxicity against isogenic chicken DT40 cell lines with known DNA damage response pathways - Rad54/Ku70 mutant cell line (AID 743015); also: nearly all actives have a fitted effect of over 60% in size
assay-setup: DT40 Rad54/Ku70 mutant viability, CellTiter-Glo, 40 h; series mostly up to 66.8 µM
Inconclusive results are not listed. Calls of active or inactive are those of the source. The call rests on the fitted dose curve; in most records, active means well fitted cell-killing curve with a large enough effect in the repeat runs; inconclusive means weak or mixed curves; inactive means no such curve, though single readings can be large or run the other way.
Outcomes: YES = active, NO = inactive

[[record]]
compound = "C=CC[C@]1(O)CC[C@H]2[C@@H]3CCC4=CCCC[C@@H]4[C@H]3CC[C@@]21C"
discrete_label = "NO"

[[record]]
compound = "CCON=O"
discrete_label = "NO"

[[record]]
compound = "CCNC1(c2cccs2)CCCCC1=O (stereo unspecified)"
discrete_label = "NO"

[[record]]
compound = "COc1ccc(C(c2ccc(OC)cc2)C(Cl)(Cl)Cl)cc1"
discrete_label = "YES"

[[record]]
compound = "CCOc1ccc2c3c1O[C@H]1[C@@H](O)C=C[C@H]4[C@@H](C2)N(C)CC[C@@]341"
discrete_label = "NO"

[[record]]
compound = "O=C(CS(=O)C(c1ccccc1)c1ccccc1)NO (stereo unspecified)"
discrete_label = "NO"

[[record]]
compound = "Cc1nnc2n1-c1sc(CCc3ccc(CC(C)C)cc3)cc1C(c1ccccc1Cl)=NC2C (stereo unspecified)"
discrete_label = "YES"

[[record]]
compound = "CCCCCCCCCC(=O)O[C@H]1CC[C@H]2[C@@H]3CCC4=CC(=O)CC[C@]4(C)[C@H]3CC[C@]12C"
discrete_label = "NO"

[[record]]
compound = "c1csc(C2(N3CCCCC3)CCCCC2)c1"
discrete_label = "NO"

[[record]]
compound = "C=CCC1(C(C)CCC)C(=O)N=C(S)NC1=O (stereo unspecified)"
discrete_label = "NO"

[[record]]
compound = "C/C(=C\\c1csc(C)n1)[C@@H]1C[C@@H]2O[C@]2(C)CCC[C@H](C)[C@H](O)[C@@H](C)C(=O)C(C)(C)[C@@H](O)CC(=O)O1"
discrete_label = "YES"

